Hey, just so you know, these numbers are from PubChem BioAssay AID1159580.

Recorded measurements of normalized growth, one per entry
test-summary: chemical genetic growth profiling, strain panel (AID 1159580);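 note: tested at 20 µM; growth read once vehicle control cultures reached saturation at 30 °C; 1 = growth at the plate median or of vehicle wells; lower values mean less growth of the strain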
condition-notes: S. cerevisiae deletion strains, growth OD, locus YJL095W, strain BCK1, stronger effect = lower value
Out of some 5,500 compounds screened, about 2,000 (36%) were called active. Inconclusive results (about 18%) are left out. Some of the results follow.
Format: numeric value only, no unit, no commentary.

Please review the entries below; each comes with its answer.
Entry O=c1[nH]c2cc(Cl)c(Cl)cc2[nH]c1=O : reported normalized growth = ?
1.02

Then this compound: CC(=O)O[C@@H]1CC2C(C)(C)[C@H](O)C[C@H](O)[C@]2(C)C2CC[C@@]3(C)[C@H](c4ccoc4)OC(=O)[C@H]4O[C@]43[C@@]21C (stereo partly drawn)
1.05

Query compound follows.
Entry Cc1cc(C(=O)O/N=C(/N)CSc2ncccc2C(F)(F)F)no1 : reported normalized growth = ?
0.841

----------
Consider the following compounds and their measured normalized growth readings.
test-summary: chemical genetic growth profiling, strain panel (AID 1159580);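 note: tested at 20 µM; growth read once vehicle control cultures reached saturation at 30 °C; 1 = growth at the plate median or of vehicle wells; lower values mean less growth of the strain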
condition-notes: S. cerevisiae deletion strains, growth OD, locus YMR001C, strain CDC5, stronger effect = lower value
The whole screen tested about 5,500 compounds, of which about 2,000 (36%) were called active. Not shown: some 18% with an inconclusive outcome. The list shows a part of the results.
No unit in the answer, only the number.

Fill blank: measured normalized growth of the compound CC(C)(C)c1cc2nc(C(F)(F)F)cc(NNC(=O)c3ccc(Cl)cc3)n2n1 is ____.
0.994

And what about the compound CC(C)(C)c1csc(NC(=O)Nc2ccc(Cl)cc2)n1 ?
0.97

Then this compound: Cc1cc(C(=O)N(c2ccccc2)C(C)C2CC2)c(Cl)cc1Cl (configuration not stated)
0.982

Next compound up: CC(C)(C)c1csc(NNC(=O)c2ccc(Cl)cc2)n1
0.974

One more compound: O=C(NCc1cccs1)c1csc(Cc2c(Cl)cccc2Cl)n1
0.986

Continuing:
// normalized growth lookup, key: N=c1ccc2nc3c(Cl)c4c(c(Cl)c3oc-2c1S(=O)(=O)O)Nc1ccc(N)c(S(=O)(=O)O)c1O4
1.01

Try the compound Cc1ccc(C(O)(c2ccccc2)c2ccccc2)c2ccccc12
0.988

----------
test-summary: chemical genetic growth profiling, strain panel (AID 1159580);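 note: tested at 20 µM; growth read once vehicle control cultures reached saturation at 30 °C; 1 = growth at the plate median or of vehicle wells; lower values mean less growth of the strain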
condition-notes: S. cerevisiae deletion strains, growth OD, locus YOR106W, strain vam3, stronger effect = lower value
Out of some 5,500 compounds screened, about 2,000 (36%) were called active. Roughly 18% stayed inconclusive and do not appear here. Some of the results follow.
Could you please mark 1 for values of normalized growth below 1 and -1 for values at or above it?

Some solved cases for reference:
Lab log: compare recorded normalized growth with 1; is it strictly lower for COc1c(O)cccc1O ?
-1

Same lookup for O=c1c(-c2cc(O)c(O)c(O)c2)coc2cc(O)c(O)c(O)c12 , please.
1

Another compound to check: CCCCCCCCCCCCCCCC[n+]1ccccc1
1

Same question, CC1=CCc2c(cc3oc(C)cc(=O)c3c2O)OC1 this time
1

Also, COc1ccc(-c2coc3cc(OC(C)=O)cc(OC(C)=O)c3c2=O)cc1 please.
1

Next compound, please.
Hi there! Is normalized growth for O=C(O)c1cn(-c2ccc(F)cc2)c2cc(N3CCNCC3)c(F)cc2c1=O below 1, do you know?
1

----------
test-summary: chemical genetic growth profiling, strain panel (AID 1159580);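 note: tested at 20 µM; growth read once vehicle control cultures reached saturation at 30 °C; 1 = growth at the plate median or of vehicle wells; lower values mean less growth of the strain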
condition-notes: S. cerevisiae deletion strains, growth OD, locus YOR265W, strain rbl2, stronger effect = lower value
In all, about 5,500 compounds went through this assay and about 2,000 (36%) were called active. About 18% were inconclusive and are not listed. This is one part of the list.
reported-property: normalized growth
Simply state the number, no unit and no words.

I have this compound here, O=c1c(-c2ccccc2)coc2cc(O)cc(O)c12 , and I need its recorded normalized growth.
1.01

One more compound: C/C(=C\C(=O)OCCCCCCCCC(=O)O)C[C@@H]1OC[C@H](C[C@@H]2O[C@H]2[C@@H](C)[C@H](C)O)[C@@H](O)[C@H]1O
0.982

Another: O=C1CN2Cc3c(ccc(Cl)c3Cl)N=C2N1
0.988

Another compound to check: NC(=O)CC[C@@H](N)C(=O)O
1.02

Item: COc1cc([C@@H]2c3cc4c(cc3C(O[C@@H]3O[C@@H]5CO[C@@H](c6cccs6)OC5[C@H](O)[C@H]3O)C3COC(=O)[C@@H]32)OCO4)cc(OC)c1O (stereo partly specified)
0.985

Could you now look at the following compound, please?
What value of normalized growth has been reported for the following compound? C=C1C2CC[C@@]3(C)[C@H](c4ccoc4)OC(=O)C[C@]13O[C@H]1CC(=O)C(C)(C)[C@H](C(O)C(=O)OC)[C@@]21C (stereo partly specified)
1.01
